System: Yersinia pseudotuberculosis
test-description: growth AUC normalised to DMSO control (fraction of control); higher = less growth inhibition, active = hit call of the paper
settings: 20 µM
Counter-ions that a name gives are not always drawn.
# output must be one of active, inactive

[
  {
    "molecule": "Clc1ccc2nsnc2c1NC1=NCCN1 [Tizanidine hydrochloride]",
    "class-label": "inactive"
  },
  {
    "molecule": "Cc1nccn1CC1CCc2c(c3ccccc3n2C)C1=O (configuration not stated) [Ondansetron hydrochloride]",
    "class-label": "inactive"
  },
  {
    "molecule": "CCCNC(C)C(=O)Nc1ccccc1C (configuration not stated) [Prilocaine hydrochloride]",
    "class-label": "inactive"
  },
  {
    "molecule": "CC12CC3CC(C)(C1)CC(N)(C3)C2 [Memantine hydrochloride]",
    "class-label": "inactive"
  },
  {
    "molecule": "C[C@@H](O[C@H]1OCCN(Cc2n[nH]c(=O)[nH]2)[C@H]1c1ccc(F)cc1)c1cc(C(F)(F)F)cc(C(F)(F)F)c1 [Aprepitant]",
    "class-label": "inactive"
  }
]

How was CCCNC(C)C(=O)Nc1c(C)csc1C(=O)OC (configuration not stated) [Articaine hydrochloride] classified in this test?
inactive

Hi, sorry to bother you, what did the test record for Cc1cnc(C(=O)O)c[n+]1[O-] [Acipimox] ?
inactive

Which outcome was entered for the molecule Cc1ncc(CO)c(CO)c1O [Pyridoxine hydrochloride] in this test?
inactive

----------
Test system: P. vulgatus WT;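 note: active when median AUC fell below 0.1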
test-description: growth AUC normalised to DMSO control (median) (fraction of control); higher = less growth inhibition, active = hit call of the paper
settings: 20 µM
Counter-ions that a name gives are not always drawn.
For each of the molecules below, state its growth AUC normalised to DMSO control.
Give bare numbers.

[
  {
    "molecule": "Cc1cc(C2CCCCC2)n(O)c(=O)c1",
    "experimental-system": "P. vulgatus WT",
    "quantity-name": "growth AUC normalised to DMSO control",
    "measured": 0.999
  },
  {
    "molecule": "CC(C)(S)C(N)C(=O)O (racemic)",
    "experimental-system": "P. vulgatus WT",
    "quantity-name": "growth AUC normalised to DMSO control",
    "measured": 1.01
  },
  {
    "molecule": "Cc1cc2c(cc1S(N)(=O)=O)S(=O)(=O)CCC2",
    "experimental-system": "P. vulgatus WT",
    "quantity-name": "growth AUC normalised to DMSO control",
    "measured": 1.01
  },
  {
    "molecule": "CCCCC1C(=O)N(c2ccccc2)N(c2ccc(O)cc2)C1=O (centres undefined)",
    "experimental-system": "P. vulgatus WT",
    "quantity-name": "growth AUC normalised to DMSO control",
    "measured": 1.06
  },
  {
    "molecule": "CC(C)NNC(=O)c1ccncc1 [Iproniazide phosphate]",
    "experimental-system": "P. vulgatus WT",
    "quantity-name": "growth AUC normalised to DMSO control",
    "measured": 1.03
  },
  {
    "molecule": "CCN1CC(CCN2CCOCC2)C(c2ccccc2)(c2ccccc2)C1=O (centres undefined) [Doxapram hydrochloride]",
    "experimental-system": "P. vulgatus WT",
    "quantity-name": "growth AUC normalised to DMSO control",
    "measured": 1.03
  },
  {
    "molecule": "CCCCNc1ccc(C(=O)OCCOCCOCCOCCOCCOCCOCCOCCOCCOC)cc1 [Benzonatate]",
    "experimental-system": "P. vulgatus WT",
    "quantity-name": "growth AUC normalised to DMSO control",
    "measured": 0.954
  },
  {
    "molecule": "Cn1c(NCCN(CCO)CCCc2ccc([N+](=O)[O-])cc2)cc(=O)n(C)c1=O",
    "experimental-system": "P. vulgatus WT",
    "quantity-name": "growth AUC normalised to DMSO control",
    "measured": 1.03
  }
]

Now take the following molecule into account.
Identify measured growth AUC normalised to DMSO control associated with "Oc1c(Cl)cc(Cl)cc1Sc1cc(Cl)cc(Cl)c1O"
0.0115
